Target: recombinant RORγ Ligand Binding Domain (LBD) protein (Homo sapiens)
Construct: 6×His; GST
Experiment: Radio-Ligand RORγ Binding Assay (Assay 1)
Conditions: radio-ligand competition, 25-hydroxy [26,27-3H]-cholesterol, RORγ LBD; read-out: Avg ROR Bind Ki
pKi: −log10 of the molar value.
# key: entry, value: pKi

compound: CCS(=O)(=O)c1ccc(CNC(=O)c2ccc3c(c2)CN(Cc2ccc(F)cc2)C[C@H]3C(C)C)cc1 (single isomer, unassigned) [Hy7-27.1]
pKi: > 7.00
--
compound: CC[C@H]1CN(c2ncc(Cl)cn2)Cc2cc(C(=O)N[C@@H](CO)c3ccc(S(=O)(=O)CC)cc3)ccc21 (single isomer, unassigned) [Hy7-6.2]
pKi: > 7.00
--
compound: CC[C@H]1CN(c2ncc(C(F)(F)F)cn2)Cc2cc(C(=O)N[C@@H](CO)c3ccc(S(=O)(=O)CC)cn3)ccc21 (single isomer, unassigned) [Hy7-18.3]
pKi: 6.00 to 7.00

Here's the next entry for you.
Which pKi value is on record for CCS(=O)(=O)c1ccc(CNC(=O)c2ccc3c(OCc4ccc(C(F)(F)F)cc4)nccc3c2)cc1 [Hy1A-4] ?
> 7.00

----------
Target: recombinant RORγ Ligand Binding Domain (LBD) protein (Homo sapiens, UniProt P51449)
Construct: 6×His; GST
Sequence (P51449 269-508 limits assumed): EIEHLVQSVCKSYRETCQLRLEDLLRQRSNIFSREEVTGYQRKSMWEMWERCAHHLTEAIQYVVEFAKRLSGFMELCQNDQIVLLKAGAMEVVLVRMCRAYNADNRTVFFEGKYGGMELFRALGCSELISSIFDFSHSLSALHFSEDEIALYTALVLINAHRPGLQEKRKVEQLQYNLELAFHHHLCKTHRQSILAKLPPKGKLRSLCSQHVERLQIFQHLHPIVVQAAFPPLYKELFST
Experiment: Radio-Ligand RORγ Binding Assay (Assay 1)
Conditions: radio-ligand competition, 25-hydroxy [26,27-3H]-cholesterol, RORγ LBD; read-out: Avg ROR Bind Ki
measure-name: Ki

Some compounds with recorded Ki:
compound: CC[C@H]1CN(c2ccc(C(F)(F)F)cc2)Cc2cc(C(=O)NCc3ccc(S(=O)(=O)CC)cc3)ccc21 (single isomer, unassigned)
test-system: recombinant RORγ Ligand Binding Domain (LBD) protein (Homo sapiens, UniProt P51449)
Ki: < 100 nM

compound: CC[C@H]1CN(C2CCC(F)(F)CC2)Cc2cc(C(=O)N[C@@H](CO)c3ccc(S(=O)(=O)CC)cc3)ccc21 (single isomer, unassigned)
test-system: recombinant RORγ Ligand Binding Domain (LBD) protein (Homo sapiens, UniProt P51449)
Ki: 100 to 1000 nM

compound: CCS(=O)(=O)c1ccc(CNC(=O)c2ccc3c(c2)CN(c2ncc(C(F)(F)F)cn2)C[C@H]3C(C)C)cc1 (single isomer, unassigned)
test-system: recombinant RORγ Ligand Binding Domain (LBD) protein (Homo sapiens, UniProt P51449)
Ki: < 100 nM

compound: CCS(=O)(=O)c1ccc(CNC(=O)c2ccc3c(c2)CCN(Cc2ccc(C#N)cc2)C3C(C)C)cc1 (racemic)
test-system: recombinant RORγ Ligand Binding Domain (LBD) protein (Homo sapiens, UniProt P51449)
Ki: < 100 nM

compound: CC[C@H]1CN(c2ncc(C(F)(F)F)cc2C#N)Cc2cc(C(=O)N[C@@H](CO)c3ccc(S(=O)(=O)CC)cc3)ccc21 (single isomer, unassigned)
test-system: recombinant RORγ Ligand Binding Domain (LBD) protein (Homo sapiens, UniProt P51449)
Ki: < 100 nM

compound: CC1c2ccc(C(=O)NCc3ccc(S(C)(=O)=O)cc3)cc2CCN1Cc1ccc(F)cc1 (racemic)
test-system: recombinant RORγ Ligand Binding Domain (LBD) protein (Homo sapiens, UniProt P51449)
Ki: > 1000 nM

compound: CC[C@H]1CN(c2ncc(C(F)(F)F)cc2C)Cc2cc(C(=O)NCc3ccc(S(=O)(=O)CC)cc3)ccc21 (single isomer, unassigned)
test-system: recombinant RORγ Ligand Binding Domain (LBD) protein (Homo sapiens, UniProt P51449)
Ki: < 100 nM

compound: CC[C@H]1CN(c2ncc(C(F)(F)F)cn2)Cc2cc(C(=O)NCc3ccc(S(=O)(=O)CC)cn3)ccc21 (single isomer, unassigned)
test-system: recombinant RORγ Ligand Binding Domain (LBD) protein (Homo sapiens, UniProt P51449)
Ki: < 100 nM

Here's the next entry for you.
Which Ki value is on record for "CCS(=O)(=O)c1ccc(CNC(=O)c2ccc3c(OC[C@H]4CC[C@H](C(F)(F)F)CC4)cc(C)nc3c2)cc1" ?
100 to 1000 nM
